Where these numbers come from: patent US9084424B2

- System: Alternaria solani
- assay: In vivo preventive test on Alternaria solani (tomato)
- measurement-setup: preventive spray, 500 ppm of active ingredient, evaluated 7 days after inoculation
Listed compounds paired with reported Efficacy

[
  {
    "compound": "CN(Cc1ncc(Cl)cc1Cl)C(=O)c1c(C(F)F)nn(C)c1F [Example 179]",
    "Efficacy": "90%"
  },
  {
    "compound": "Cn1nc(C(F)F)c(C(=O)NC(c2ccccc2Cl)C(F)(F)F)c1Cl (racemic) [Example 19]",
    "Efficacy": "90%"
  },
  {
    "compound": "Cn1nc(C(F)F)c(C(=O)NC2CCc3ccccc32)c1Cl (stereo not shown) [Example 137]",
    "Efficacy": "89%"
  },
  {
    "compound": "Cn1nc(C(F)F)c(C(=O)NCc2ccc(Oc3ccccc3)cc2)c1F [Example 152]",
    "Efficacy": "89%"
  }
]

* * *

- assay: log P by HPLC on reversed-phase column (EEC Directive 79/831 Annex V.A8)
- Assay type: physicochemical
- measurement-setup: HPLC, reversed-phase C 18, 40° C., 0.1% aqueous formic acid and acetonitrile, linear gradient 10% to 90% acetonitrile
So basically: logP at 4 or higher? That is condition met. Lower than 4? That is condition not met.

[
  {
    "compound": "Cc1cccc(C)c1CN(C)C(=O)c1c(C(F)F)nn(C)c1F [Example 6]",
    "label": "condition not met"
  },
  {
    "compound": "Cn1nc(C(F)F)c(C(=O)NC2(c3cc(Cl)ccc3Cl)CC2)c1Cl [Example 48]",
    "label": "condition met"
  },
  {
    "compound": "Cn1nc(C(F)F)c(C(=O)NC2(c3cc(Cl)ccc3Cl)CC2)c1F [Example 51]",
    "label": "condition met"
  },
  {
    "compound": "CC(c1ccccc1Cl)N(C)C(=O)c1c(C(F)F)nn(C)c1F (racemic) [Example 28]",
    "label": "condition not met"
  },
  {
    "compound": "CN(Cc1c(Cl)cccc1Cl)C(=O)c1c(C(F)F)nn(C)c1Cl [Example 61]",
    "label": "condition not met"
  },
  {
    "compound": "CC(NC(=O)c1c(C(F)F)nn(C)c1F)c1cc(Cl)ccc1Cl (stereo not shown) [Example 53]",
    "label": "condition met"
  },
  {
    "compound": "CON(Cc1ccccc1C(C)C)C(=O)c1c(C(F)F)nn(C)c1F [Example 76]",
    "label": "condition not met"
  },
  {
    "compound": "Cn1nc(C(F)F)c(C(=O)NCc2ccc(Cl)cc2Cl)c1F [Example 37]",
    "label": "condition met"
  },
  {
    "compound": "CC(c1ccccc1Cl)N(C)C(=O)c1c(C(F)F)nn(C)c1Cl (racemic) [Example 27]",
    "label": "condition not met"
  },
  {
    "compound": "CC(NC(=O)c1c(C(F)F)nn(C)c1Cl)c1ccc(Cl)cc1Cl (stereo not shown) [Example 33]",
    "label": "condition met"
  },
  {
    "compound": "CC(C)c1ccccc1CN(C(=S)c1c(C(F)F)nn(C)c1F)C1CCC1 [Example 75]",
    "label": "condition met"
  },
  {
    "compound": "CON(C(=O)c1c(C(F)F)nn(C)c1Cl)C(C)c1ccc(Cl)cc1Cl (stereo not shown) [Example 46]",
    "label": "condition not met"
  },
  {
    "compound": "Cn1nc(C(F)F)c(C(=O)NCc2c(Cl)cccc2Cl)c1F [Example 60]",
    "label": "condition met"
  },
  {
    "compound": "Cn1nc(C(F)F)c(C(=O)NCc2ccccc2C2CC2)c1F [Example 65]",
    "label": "condition not met"
  },
  {
    "compound": "CC(NC(=O)c1c(C(F)F)nn(C)c1F)c1ccc(Cl)cc1Cl (stereo not shown) [Example 36]",
    "label": "condition met"
  },
  {
    "compound": "CC(C)c1ccccc1CNC(=O)c1c(C(F)F)nn(C)c1F [Example 74]",
    "label": "condition not met"
  },
  {
    "compound": "Cn1nc(C(F)F)c(C(=O)NCc2cc(Cl)ccc2Cl)c1Cl [Example 47]",
    "label": "condition met"
  },
  {
    "compound": "CN(Cc1ccccc1Br)C(=O)c1c(C(F)F)nn(C)c1Cl [Example 104]",
    "label": "condition not met"
  },
  {
    "compound": "CC(c1c(Cl)cccc1Cl)N(C)C(=O)c1c(C(F)F)nn(C)c1Cl (stereo not shown) [Example 63]",
    "label": "condition not met"
  },
  {
    "compound": "Cn1nc(C(F)F)c(C(=O)NC(c2ccc(Cl)cc2Cl)C(F)(F)F)c1F (stereo not shown) [Example 40]",
    "label": "condition met"
  },
  {
    "compound": "Cn1nc(C(F)F)c(C(=O)NC(C)(C)c2ccc(Cl)cc2Cl)c1F [Example 39]",
    "label": "condition met"
  },
  {
    "compound": "C#CCN(Cc1ccccc1C(C)C)C(=O)c1c(C(F)F)nn(C)c1F [Example 73]",
    "label": "condition not met"
  },
  {
    "compound": "Cn1nc(C(F)F)c(C(=O)N(Cc2ccc(Cl)cc2Cl)C2CCC2)c1Cl [Example 30]",
    "label": "condition met"
  },
  {
    "compound": "CON(Cc1ccccc1C(C)C)C(=O)c1c(C(F)F)nn(C)c1Cl [Example 77]",
    "label": "condition not met"
  },
  {
    "compound": "CC(c1c(Cl)cccc1Cl)N(C)C(=O)c1c(C(F)F)nn(C)c1F (stereo not shown) [Example 64]",
    "label": "condition not met"
  },
  {
    "compound": "CCc1ccccc1CN(C)C(=O)c1c(C(F)F)nn(C)c1F [Example 15]",
    "label": "condition not met"
  },
  {
    "compound": "C=CCN(Cc1ccccc1C(C)C)C(=O)c1c(C(F)F)nn(C)c1F [Example 71]",
    "label": "condition not met"
  },
  {
    "compound": "CN(Cc1ccc(Cl)cc1Cl)C(=O)c1c(C(F)F)nn(C)c1Cl [Example 42]",
    "label": "condition not met"
  },
  {
    "compound": "CC(C)N(Cc1ccccc1[Si](C)(C)C)C(=O)c1c(C(F)F)nn(C)c1F [Example 102]",
    "label": "condition met"
  }
]
